ASSAY_OVERVIEW: Fluorescence maximum of the dye
Format: physicochemical
EXPERIMENTAL_CONTEXT: solvent PBS pH 7.4
From the text: Examples of the compounds according to the invention are listed in Tables 2-6, where the structures as well as the absorption and fluorescence maxima are indicated. The spectra of selected compounds are shown FIGS. 5-18.
Marks after values point to notes of the source that are not given here.
QUANTITY: λfl

>  <SMILES_ENTRY>
CN(CCCC(=O)O)C(=O)c1ccccc1C1=c2cc3c(cc2C(C)(C)c2cc4c(cc21)C(CS(=O)(=O)O)=CC(C)(C)N4Cc1ccc(S(=O)(=O)O)cc1S(=O)(=O)O)=[N+](Cc1ccc(S(=O)(=O)O)cc1S(=O)(=O)O)C(C)(C)C=C3CS(=O)(=O)O

>  <VALUE_MEASURED>
707^b nm

$$$$
>  <SMILES_ENTRY>
CN(CCCC(=O)O)C(=O)c1ccccc1-c1c2cc/c(=N/Cc3ccc(S(=O)(=O)O)cc3S(=O)(=O)O)cc-2oc2cc(NCc3ccc(S(=O)(=O)O)cc3S(=O)(=O)O)ccc12

>  <VALUE_MEASURED>
555^b nm

$$$$
>  <SMILES_ENTRY>
CC[N+]1=c2cc3c(cc2C(CS(=O)(=O)O)=CC1(C)C)=C(c1c(F)c(F)c(SCC(=O)O)c(F)c1F)c1cc2c(cc1C3(C)C)N(Cc1ccc(S(=O)(=O)O)cc1S(=O)(=O)O)CCC2

>  <VALUE_MEASURED>
704^b nm

$$$$
>  <SMILES_ENTRY>
CC[N+]1=c2cc3c(cc2C(CS(=O)(=O)O)=CC1(C)C)=C(c1ccc(C(=O)O)cc1)c1cc2c(cc1C3(C)C)N(Cc1ccc(S(=O)(=O)O)cc1S(=O)(=O)O)C(C)(C)C=C2CS(=O)(=O)O

>  <VALUE_MEASURED>
697^b nm

$$$$

---

ASSAY_OVERVIEW: Absorption maximum of the dye
Type: physicochemical
EXPERIMENTAL_CONTEXT: solvent PBS pH 7.4
Marks after values point to notes of the source that are not given here.
# λabs annotations

>  <COMPOUND>
CCN1c2cc3c(cc2C(CS(=O)(=O)O)=CC1(C)C)C(c1n(C)cc[n+]1CCCC(=O)O)=c1cc2c(cc1C3(C)C)=[N+](Cc1ccc(S(=O)(=O)O)cc1S(=O)(=O)O)CCC2 [Compound 56]

>  <λabs>
724^b nm

$$$$
>  <COMPOUND>
CC1(C)CC(CS(=O)(=O)O)c2cc3c(cc2=[N+]1CCCC(=O)O)Oc1cc2c(cc1N=3)CCCN2Cc1ccc(S(=O)(=O)O)cc1S(=O)(=O)O (centres unmarked) [Compound 98]

>  <λabs>
664^b nm

$$$$
>  <COMPOUND>
CC1(C)C=C(CS(=O)(=O)O)c2cc3c(cc2N1CCCC(=O)O)[Si](C)(C)c1cc2c(cc1=C3NCC(S(=O)(=O)O)S(=O)(=O)O)C(CS(=O)(=O)O)=CC(C)(C)[N+]=2CCS(=O)(=O)O [Compound 93]

>  <λabs>
516^b nm

$$$$
>  <COMPOUND>
CC1(C)c2cc3c(cc2C(NCC(S(=O)(=O)O)S(=O)(=O)O)=c2cc4c(cc21)=[N+](Cc1ccc(S(=O)(=O)O)cc1S(=O)(=O)O)C(C)(C)C=C4CS(=O)(=O)O)C(CS(=O)(=O)O)=CC(C)(C)N3CCCC(=O)O [Compound 86]

>  <λabs>
502^b nm

$$$$
>  <COMPOUND>
CC1(C)c2cc3c(cc2N=c2cc4c(cc21)=[N+](CCCC(=O)O)C(C)(C)C=C4CS(=O)(=O)O)CCCN3Cc1ccc(S(=O)(=O)O)cc1S(=O)(=O)O [Compound 103]

>  <λabs>
740^b nm

$$$$
>  <COMPOUND>
CN(C)c1ccc2c(c1)C(C)(C)c1cc3c(cc1=C2C#N)CCC[N+]=3Cc1ccc(S(=O)(=O)O)cc1S(=O)(=O)O [Compound 77]

>  <λabs>
730^b nm

$$$$
>  <COMPOUND>
CC1(C)C=C(CS(=O)(=O)O)c2cc3c(cc2=[N+]1CCCC(=O)O)Oc1cc2c(cc1N=3)CCCN2Cc1ccc(S(=O)(=O)O)cc1S(=O)(=O)O [Compound 99]

>  <λabs>
682^b nm

$$$$
>  <COMPOUND>
CC1(C)CC(CS(=O)(=O)O)c2cc3c(cc2=[N+]1CCCC(=O)O)Oc1cc(N(Cc2ccc(S(=O)(=O)O)cc2S(=O)(=O)O)Cc2ccc(S(=O)(=O)O)cc2S(=O)(=O)O)ccc1N=3 (centres unmarked) [Compound 97]

>  <λabs>
649^b nm

$$$$
>  <COMPOUND>
Cc1cc(=O)n(CC(=O)O)c2cc(NCc3ccc(S(=O)(=O)O)cc3S(=O)(=O)O)ccc12 [Compound 107]

>  <λabs>
351^b nm

$$$$
>  <COMPOUND>
CC1(C)c2cc3c(cc2C(c2c(Cl)cccc2Cl)=c2cc4c(cc21)=[N+](Cc1ccc(S(=O)(=O)O)cc1S(=O)(=O)O)C(C)(C)C=C4CS(=O)(=O)O)CCCN3CCCC(=O)O [Compound 52]

>  <λabs>
673^b nm

$$$$
>  <COMPOUND>
Cc1c(CC(=O)O)c(=O)oc2cc(NCc3ccc(S(=O)(=O)O)cc3S(=O)(=O)O)c(S(=O)(=O)O)cc12 [Compound 111]

>  <λabs>
348^b nm

$$$$
>  <COMPOUND>
CC[N+]1=c2cc3c(cc2C(CS(=O)(=O)O)=CC1(C)C)=C(c1n(C)cc[n+]1CCCCC(=O)O)c1cc2c(cc1C3(C)C)N(Cc1ccc(S(=O)(=O)O)cc1S(=O)(=O)O)C(C)(C)C=C2CS(=O)(=O)O [Compound 61]

>  <λabs>
743^b nm

$$$$
>  <COMPOUND>
CN(Cc1ccc(S(=O)(=O)O)cc1S(=O)(=O)O)c1ccc2c(c1)[Si](C)(C)C1=C/C(=[N+](/C)Cc3ccc(S(=O)(=O)O)cc3S(=O)(=O)O)C=CC1=C2C#N [Compound 89]

>  <λabs>
746^b nm

$$$$
>  <COMPOUND>
Cn1cc[n+](CCCCS(=O)(=O)O)c1C1=c2cc3c(cc2C(C)(C)c2cc4c(cc21)C(CS(=O)(=O)O)=CC(C)(C)N4Cc1ccc(S(=O)(=O)O)cc1S(=O)(=O)O)=[N+](CCCC(=O)O)C(C)(C)C=C3CS(=O)(=O)O [Compound 60]

>  <λabs>
742^b nm

$$$$
>  <COMPOUND>
CC1(C)C=C(CS(=O)(=O)O)c2cc3c(cc2N1CCCC(=O)O)[Si](C)(C)c1cc2c(cc1=C3C#N)C(CS(=O)(=O)O)=CC(C)(C)[N+]=2CCS(=O)(=O)O [Compound 92]

>  <λabs>
817^b nm

$$$$
>  <COMPOUND>
CCN1c2cc3c(cc2C(CS(=O)(=O)O)CC1(C)C)C(c1ccccc1C(=O)N(C)CCCC(=O)O)=c1cc2c(cc1C3(C)C)=[N+](Cc1ccc(S(=O)(=O)O)cc1S(=O)(=O)O)C(C)(C)CC2CS(=O)(=O)O (centres unmarked) [Compound 66]

>  <λabs>
645^b nm

$$$$
>  <COMPOUND>
CN(Cc1ccc(S(=O)(=O)O)cc1S(=O)(=O)O)c1ccc2c(c1)[Si](C)(C)C1=C/C(=[N+](/C)Cc3ccc(S(=O)(=O)O)cc3S(=O)(=O)O)C=CC1=C2c1cc(C(=O)O)ccc1C(=O)O [Compound 70]

>  <λabs>
649^b nm

$$$$
>  <COMPOUND>
CCN1c2cc3c(cc2C(CS(=O)(=O)O)=CC1(C)C)C(c1ccccc1C(=O)N(C)CCCC(=O)O)=c1cc2c(cc1C3(C)C)=[N+](Cc1ccc(S(=O)(=O)O)cc1S(=O)(=O)O)C(C)(C)C=C2CS(=O)(=O)O [Compound 65]

>  <λabs>
679^b nm

$$$$
>  <COMPOUND>
Cc1cc(=O)n(CC(=O)O)c2cc(NCc3ccc(S(=O)(=O)O)cc3S(=O)(=O)O)c(S(=O)(=O)O)cc12 [Compound 109]

>  <λabs>
349^b nm

$$$$
>  <COMPOUND>
CN(CCCC(=O)O)C(=O)c1ccccc1C1=C2C=C/C(=[N+](\C)Cc3ccc(S(=O)(=O)O)cc3S(=O)(=O)O)C=C2[Si](C)(C)c2cc(N(C)Cc3ccc(S(=O)(=O)O)cc3S(=O)(=O)O)ccc21 [Compound 69]

>  <λabs>
658^b nm

$$$$

---

ASSAY_OVERVIEW: Fluorescence maximum of the dye
Type: physicochemical
EXPERIMENTAL_CONTEXT: solvent PBS pH 7.4
Marks after values point to notes of the source that are not given here.
Each item that follows carries a reported λfl.

>  <MOLECULE>
CCN1c2cc3c(cc2C(CS(=O)(=O)O)CC1(C)C)C(c1ccccc1C(=O)N(C)CCCC(=O)O)=c1cc2c(cc1C3(C)C)=[N+](Cc1ccc(S(=O)(=O)O)cc1S(=O)(=O)O)C(C)(C)CC2CS(=O)(=O)O (stereo not drawn)

>  <λfl>
665^b nm

$$$$
>  <MOLECULE>
C[N+](C)=C1C=CC2=C(NC(CCS(=O)(=O)O)C(=O)O)c3cc4c(cc3C(C)(C)C2=C1)N(Cc1ccc(S(=O)(=O)O)cc1S(=O)(=O)O)CCC4 (stereo not drawn)

>  <λfl>
673^b nm

$$$$
>  <MOLECULE>
CN(C)c1ccc2c(c1)C(C)(C)c1cc3c(cc1=C2C#N)CCC[N+]=3Cc1ccc(S(=O)(=O)O)cc1S(=O)(=O)O

>  <λfl>
751^b nm

$$$$
>  <MOLECULE>
CC1(C)c2c(cc3c4c2CCCN4CCC3)C=c2cc3c(cc21)=[N+](Cc1ccc(S(=O)(=O)O)cc1S(=O)(=O)O)CCC3

>  <λfl>
649^b nm

$$$$
>  <MOLECULE>
CN(CCCC(=O)O)C(=O)c1ccccc1-c1c2cc(S(=O)(=O)O)/c(=N/Cc3ccc(S(=O)(=O)O)cc3S(=O)(=O)O)cc-2oc2cc(NCc3ccc(S(=O)(=O)O)cc3S(=O)(=O)O)c(S(=O)(=O)O)cc12

>  <λfl>
559^b nm

$$$$
>  <MOLECULE>
CN(CCCC(=O)ON1C(=O)CCC1=O)C(=O)c1ccccc1-c1c2cc(S(=O)(=O)O)/c(=N/Cc3ccc(S(=O)(=O)O)cc3S(=O)(=O)O)cc-2oc2cc(NCc3ccc(S(=O)(=O)O)cc3S(=O)(=O)O)c(S(=O)(=O)O)cc12

>  <λfl>
559^b nm

$$$$
>  <MOLECULE>
C[Si]1(C)c2cc3c(cc2C(NCCCC(=O)O)=c2cc4c(cc21)=[N+](Cc1ccc(S(=O)(=O)O)cc1S(=O)(=O)O)CCC4)CCCN3Cc1ccc(S(=O)(=O)O)cc1S(=O)(=O)O

>  <λfl>
661^b nm

$$$$
>  <MOLECULE>
Cc1c(CC(=O)O)c(=O)oc2cc(NCc3ccc(S(=O)(=O)O)cc3S(=O)(=O)O)c(S(=O)(=O)O)cc12

>  <λfl>
449^b nm

$$$$
>  <MOLECULE>
CN(CCCC(=O)O)C(=O)c1ccccc1C1=c2cc3c(cc2C(C)(C)c2c1cc1c4c2CCCN4CCC1)=[N+](Cc1ccc(S(=O)(=O)O)cc1S(=O)(=O)O)CCC3

>  <λfl>
659 nm

$$$$
>  <MOLECULE>
CC1(C)c2c(cc3c4c2CCCN4CCC3)C(C#N)=c2cc3c(cc21)=[N+](Cc1ccc(S(=O)(=O)O)cc1S(=O)(=O)O)CCC3

>  <λfl>
761^b nm

$$$$
>  <MOLECULE>
O=C(O)c1ccccc1-c1c2cc/c(=N/Cc3ccc(S(=O)(=O)O)cc3S(=O)(=O)O)cc-2oc2cc(NCc3ccc(S(=O)(=O)O)cc3S(=O)(=O)O)ccc12

>  <λfl>
559^b nm

$$$$
>  <MOLECULE>
CC1(C)c2cc3c(cc2C(c2c(Cl)cccc2Cl)=c2cc4c(cc21)=[N+](Cc1ccc(S(=O)(=O)O)cc1S(=O)(=O)O)C(C)(C)C=C4CS(=O)(=O)O)CCCN3CCCC(=O)O

>  <λfl>
698^b nm

$$$$
>  <MOLECULE>
O=C(O)C1CCCN1C(=O)c1ccccc1-c1c2cc(S(=O)(=O)O)/c(=N/Cc3ccc(S(=O)(=O)O)cc3S(=O)(=O)O)cc-2oc2cc(NCc3ccc(S(=O)(=O)O)cc3S(=O)(=O)O)c(S(=O)(=O)O)cc12 (stereo not drawn)

>  <λfl>
556^b nm

$$$$
>  <MOLECULE>
CN(CCCC(=O)O)C(=O)c1ccccc1-c1c2cc/c(=N/CCc3ccc(S(=O)(=O)O)cc3)c(S(=O)(=O)O)c-2oc2c(S(=O)(=O)O)c(NCCc3ccc(S(=O)(=O)O)cc3)ccc12

>  <λfl>
558^b nm

$$$$
>  <MOLECULE>
CN(C)c1ccc2c(c1)C(C)(C)c1cc3c(cc1=C2NCCCCCC(=O)O)CCC[N+]=3Cc1ccc(S(=O)(=O)O)cc1S(=O)(=O)O

>  <λfl>
609^b nm

$$$$
>  <MOLECULE>
Cc1cc(=O)n(CC(=O)O)c2cc(NCS(=O)(=O)O)ccc12

>  <λfl>
410^b nm

$$$$
>  <MOLECULE>
CN(Cc1ccc(S(=O)(=O)O)cc1S(=O)(=O)O)c1ccc2c(c1)[Si](C)(C)C1=C/C(=[N+](/C)Cc3ccc(S(=O)(=O)O)cc3S(=O)(=O)O)C=CC1=C2NCCCC(=O)O

>  <λfl>
637^b nm

$$$$
>  <MOLECULE>
CCN(Cc1ccc(S(=O)(=O)O)cc1S(=O)(=O)O)c1ccc2c(-c3ccccc3C(=O)O)c3cc/c(=[N+](\CC)Cc4ccc(S(=O)(=O)O)cc4S(=O)(=O)O)cc-3oc2c1

>  <λfl>
583^b nm

$$$$
>  <MOLECULE>
CCN(Cc1ccc(S(=O)(=O)O)cc1S(=O)(=O)O)c1ccc2c(-c3ccccc3C(=O)N(C)CCCC(=O)O)c3cc/c(=[N+](\CC)Cc4ccc(S(=O)(=O)O)cc4S(=O)(=O)O)cc-3oc2c1

>  <λfl>
584^b nm

$$$$
>  <MOLECULE>
Cc1c(CC(=O)O)c(=O)oc2cc(Nc3nc(Cl)nc(NCCS(=O)(=O)O)n3)ccc12

>  <λfl>
416^b nm

$$$$
>  <MOLECULE>
CC1(C)CC(CS(=O)(=O)O)c2cc3c(cc2=[N+]1CCCC(=O)O)Oc1cc(N(Cc2ccc(S(=O)(=O)O)cc2S(=O)(=O)O)Cc2ccc(S(=O)(=O)O)cc2S(=O)(=O)O)ccc1N=3 (stereo not drawn)

>  <λfl>
667^b nm

$$$$
